# IC50 per entry
molecular target: F36L mutant FKBP (Homo sapiens, UniProt P62942, F37L); experiment: Competitive Binding FP Assay; conditions: Synthetic Monomers table; normalized to value of FK506 run in the same experiment; read-out: F36L IC50
Sequence (P62942 2-108 F37L): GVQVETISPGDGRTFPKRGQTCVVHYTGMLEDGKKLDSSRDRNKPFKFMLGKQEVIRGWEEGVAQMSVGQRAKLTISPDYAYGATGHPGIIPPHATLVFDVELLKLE
Number first, unit second: that is the form wanted.

> print(dat)
                                   compound  value.kind  value.observed
1  COc1ccc(CCC(OC(=O)C2CCCCN2C(=O)C(c2ccccc2)C(C)C)c2cccc(OCC(=O)O)c2)cc1OC (mixture of isomers) [AP1781]        IC50        0.033 µM
2  CCC(C)(C)C(=O)C(=O)N1CCCC[C@H]1C(=O)O[C@H](CCc1ccc(OC)c(OC)c1)c1cccc(OCC(=O)O)c1 [AP1497]        IC50        0.047 µM

Turning now to a further compound:
[Q] For the compound CC[C@@H](C(=O)N1CCCC[C@H]1C(=O)O[C@H](CCc1ccc(OC)c(OC)c1)c1cccc(OCC(=O)O)c1)c1ccccc1 [AP1769] , what IC50 is on record?
[A] 0.238 µM

* * *

molecular target: F36I mutant FKBP; assay: Competitive Binding FP Assay; details: Synthetic Monomers table; normalized to value of FK506 run in the same experiment
Value Kind: IC50 (nM)
Give your result in nM as a bare value.

Below: 2 molecules and their reported IC50.
> print(dat)
                            compound.string  value.observed
1  COc1ccc(CC[C@@H](OC(=O)[C@@H]2CCCCN2C(=O)[C@@H](C)c2ccccc2)c2cccc(OCC(=O)O)c2)cc1OC             117
2  CC[C@@H](C(=O)N1CCCC[C@H]1C(=O)O[C@H](CCc1ccc(OC)c(OC)c1)c1cccc(OCC(=O)O)c1)c1ccccc1             346

Turning now to a further molecule:
[Q] For the molecule `COc1ccc(CC[C@@H](OC(=O)[C@@H]2CCCCN2C(=O)[C@H](C)c2ccccc2)c2cccc(OCC(=O)O)c2)cc1OC` , what IC50 is on record?
[A] 1050

* * *

# pIC50 per entry
target: UniProtKB P62942; assay: Competitive Binding FP Assay; details: Synthetic Monomers table; normalized to value of FK506 run in the same experiment; read-out: wild-type IC50
The read-out pIC50 is expressed as -log10 of concentration in moles per litre.

Below: 5 compounds and their reported pIC50.
> print(dat)
                                   compound  value.kind  value.observed
1  CCC(C)(C)C(=O)C(=O)N1CCCC[C@H]1C(=O)O[C@H](CCc1ccc(OC)c(OC)c1)c1cccc(OCC(=O)O)c1       pIC50            7.07
2  COc1ccc(CCC(OC(=O)C2CCCCN2C(=O)C(c2ccccc2)C(C)C)c2cccc(OCC(=O)O)c2)cc1OC (mixture of isomers)       pIC50            4.41
3  COc1ccc(CC[C@@H](OC(=O)[C@@H]2CCCCN2C(=O)Cc2ccccc2)c2cccc(OCC(=O)O)c2)cc1OC       pIC50            4.67
4  COc1ccc(CC[C@@H](OC(=O)[C@@H]2CCCCN2C(=O)[C@@H](C)c2ccccc2)c2cccc(OCC(=O)O)c2)cc1OC       pIC50            4.80
5  COc1ccc(CCC(OC(=O)C2CCCCN2C(=O)C(c2ccccc2)C2CCCC2)c2cccc(OCC(=O)O)c2)cc1OC (mixture of isomers)       pIC50            4.80

[Q] For the compound `CC[C@@H](C(=O)N1CCCC[C@H]1C(=O)O[C@H](CCc1ccc(OC)c(OC)c1)c1cccc(OCC(=O)O)c1)c1ccccc1` , what pIC50 is on record?
[A] 3.66

[Q] For the compound CCC(C(=O)N1CCCC[C@H]1C(=O)O[C@H](CCc1ccc(OC)c(OC)c1)c1cccc(OCC(=O)O)c1)c1ccc2c(c1)OCO2 (stereo partly drawn) , what pIC50 is on record?
[A] 4.87

Data origin, for the record: patent EP0888303B1
